# Tested on: HPPD polypeptides (wild-type SEQ ID NO:1 and mutants)
# Assay Conditions: total change in signal in presence of 50 μM Cmpd. 1, normalised to that without inhibitor; low substrate concentration

>  <Molecule>
76 (protein, mutant HPPD polypeptide) MADLYENPMGLMGFEFIEFASPTPGTLEPIFEIMGFTKVATHRSKNVHLYRQGEINLILNNEPNSIASYFAAEHGPSVCGMAFRVKDSQKAYNRALELGAQPIHIDTGPMELNLPAIKGIGGAPLYLIDRFGEGSSIYDIDFVYLEGVERNPVGAGLKVIDHLTHNVYRGRMVYWANFYEKLFNFREARYFDIKGEYTGLTSKAMSAPDGMIRIPLNEESSKGAGQIEEFLMQFNGEGIQHVAFLTDDLVKTWDALKKIGMRFMTAPGDRYYEMLEGRLPDHGEPVDQLQARGILLDGSSVEGDKRLLLQIFSETLMGPVFFEFIQRKGDDGFGPDSFKVLFESVERDQVRRGVLTAD

>  <Result Units>
%

>  <Residual turnover>
50

$$$$
